Hi there, I'd appreciate the recorded TGI for every entry that follows.
- Test system: HL-60(TB) leukemia
- ASSAY_REMARKS: NCI tumour cell line growth inhibition, 48 h

MOLECULE | TGI
CN(C)CC1CCCC/C1=N/OC(=O)c1ccc(Cl)cc1 (centres undefined) | > 100 µM
Cn1cc(-c2csc(-c3c[nH]c4ccc(F)cc34)n2)c2cnccc21 | 4.32 µM
CC(OC(C)(C)C)[C@H](NC(=O)OCC(Cl)(Cl)Cl)C(=O)O (some centres undefined) | > 100 µM
COC(=O)C1=C(C(=O)NNc2ccccc2)N(c2cccnc2Cl)C(c2ccccc2)=CC1c1ccccc1 (centres undefined) | > 100 µM
CN(C)CC[PH+](c1ccccc1)c1ccccc1.CN(C)CC[PH+](c1ccccc1)c1ccccc1.[Cl-].[Pd+2] | > 100 µM

Fill in TGI for each of the 2 molecules listed.
1. CC(=O)c1sc(Nc2nnc(-c3ccc(-c4nnc(Nc5nc(C)c(C(C)=O)s5)o4)cc3)o2)nc1C
2. Cn1ccc(C(=O)NCCN(CCNC(=O)c2ccn(C)c(=O)c2O)CCNC(=O)c2cccc(=O)n2O)c(O)c1=O

Result:
1. > 100 µM
2. > 100 µM

Provide each entry's TGI from the list below.
1. C/C=C(/C)C(=O)O[C@@H]1CCN2CC[C@H](COC(=O)/C(=C/C)CO)C12 (some centres undefined)
2. COc1cc(C2c3cc4c(cc3OC3(OC)COC(=O)C23)OCO4)cc(OC)c1OC(C)=O (centres undefined)

Result:
1: > 100 µM; 2: 12.8 µM

* * *

- Test system: HCC-2998 colon
- ASSAY_REMARKS: NCI tumour cell line growth inhibition, 48 h
MEASURE_NAME: TGI (µM)
Numbers only, in µM.

COMPOUND | MEASURE_NAME | RESULT
CCC(C)OC(=O)/C(Br)=C1/OC(=O)c2ccccc2-c2ccccc21 (centres undefined) | TGI | 39.4

For every item in the list below, what is its measured TGI?
1. O=[N+]([O-])/C(C(Cl)=C(Cl)Cl)=C(/Cl)Sc1ccccc1
2. C=C(Cl)C(Br)(CCl)CCC(Br)C(C)(C)Cl (centres undefined)

Result:
5.7
30.5

Request: Given the compound "COc1ccc(C(=O)/C=C/c2cc(-c3cc(OC)c(OC)c(OC)c3)n[nH]2)cc1OC" , write its reported TGI.
Result: 3.78

* * *

- System: HCT-15 colon
- ASSAY_REMARKS: NCI tumour cell line growth inhibition, 48 h; in the data active = GI50 below about 0.43 µM; inactive = the rest
The reply should name one outcome from YES for active, NO for inactive

Please review the entries below; each comes with its answer.
COMPOUND | ASSIGNED_CLASS
O=C(c1ccccc1)c1cc2ccccc2o1 | NO
[Cl][Hg][c]1cc[c]([Hg][Cl])o1 | NO
COc1cc(Cn2c(-c3ccccc3)c(Cl)c3c2-c2oncc2CC3)cc(OC)c1 | NO
COc1cc2c3c(n(C)c(=O)c2cc1OC)-c1cc2c(cc1/C3=C\CN)OCO2 | NO
O=C(Cn1c[n+](CC(=O)c2ccc(-c3ccccc3)cc2)c2ccccc21)Nc1cccc2cccnc12 | NO
Clc1ccc2[nH]cc(-c3nnnn3-c3ccccc3)c2c1 | NO
CO/N=C(\COc1ccc2c(c1)oc(=O)c1cc(OC)ccc12)c1ccc(OC)cc1 | NO
CN1C(=O)N(C)C2C1NN=c1s/c(=C\c3ccc(Cl)cc3Cl)c(=O)n12 (centres undefined) | YES
CS(=O)(=O)CCNCc1nc(-c2ccc3ncnc(Nc4ccc(OCc5cccc(C(F)(F)F)c5)cc4)c3c2)cs1 | NO
O=C1OCC2=C1C(c1cccc(Br)c1)c1cc3c(cc1N2CCO)CCC3 (centres undefined) | YES

Request: Recorded test call requested for COc1cc(F)ccc1-c1ncnc(Nc2cccc(CS(C)(=N)=O)c2)n1 (centres undefined)
Result: NO

Request: Test call, this compound: "COc1c(OC[C@H](O)CN2CCOCC2)ccc2c3n(c(=NC(=O)c4cccnc4C)nc12)CCN3"
Result: NO

Request: State the result this test recorded for CCCN1C(=O)N(CCC)C2C1NC(=S)N2/N=C/C=C/c1ccccc1OC (centres undefined) .
Result: NO

Request: What outcome does the record of this test show for "COc1cc(-n2cc(-c3ccc(F)cc3)[nH]c2=O)cc(OC)c1OC" ?
Result: NO

* * *

- System: SR leukemia
- ASSAY_REMARKS: NCI tumour cell line growth inhibition, 48 h; in the data active = GI50 below about 0.43 µM; inactive = the rest
// one of active, inactive, no free text

Some entries whose results are on file:
COMPOUND | EXPERIMENTAL_SYSTEM | ASSIGNED_CLASS
COc1cccc2c1C(=O)c1c(O)c3c(c(O)c1C2=O)C[C@](O)(C(=O)CO)C[C@H]3O[C@@H]1C[C@@H](NC(=O)CCCCCN(C)C2(c3ccc(F)cc3)CC3CCC2C3)[C@H](O)[C@@H](C)O1 (some centres undefined) | SR leukemia | active
CC[C@H]1[C@@H]2C=C[C@@H]3[C@H]4C/C=C\C(=O)NCCC[C@@H]5NC(=O)/C(=C(O)/C=C/[C@@H]4C[C@@H]3[C@H]2C[C@H]1C)C5=O | SR leukemia | active
CC(C)Oc1ccc2cc(-c3nn(CC4CCNCC4)c4ncnc(N)c34)ccc2c1 | SR leukemia | inactive

Now for a further compound.
Request: Recorded test call requested for "COc1ccc2[nH]cc(C3(c4c[nH]c5ccc(OC)cc45)C(=O)Nc4ccc(F)cc43)c2c1"
Result: inactive

* * *

For each record, write down the corresponding GI50.
- System: MDA-MB-435

Please state GI50 for every compound in the list that follows.
1. COc1ccc(Nc2nnc(-c3cc(O)ccc3O)s2)cc1
2. O=C1/C(=C/c2cccc(Cl)c2Cl)N=C(c2ccccc2)N1C1CC1
3. C=C(C)[C@@H]1CC[C@]2(C)[C@H](CC=C3[C@@H]4CC(C)(C)CC[C@]4(C(N)=O)CC[C@]32C)[C@@]1(C)CCC#N
4. O=C1C=CC(=O)c2cc3cc(CBr)ccc3cc21
5. Cc1ncc(C(=O)Nc2ccc(CN3CCN(C)CC3)c(C(F)(F)F)c2)cc1C#Cc1cnc(N)c2ccncc12

Result:
9.22 µM
11.1 µM
3.21 µM
11.8 µM
1.43 µM

* * *

- System: BT-549 breast
- ASSAY_REMARKS: NCI tumour cell line growth inhibition, 48 h; in the data active = GI50 below about 0.43 µM; inactive = the rest
Entry note: the call must match one of true (1) for active, false (0) for inactive

The examples below pair each entry with its known result.
MOLECULE | EXPERIMENTAL_SYSTEM | ASSIGNED_CLASS
O=C1Nc2ccccc2/C1=N\[O-].O=C1Nc2ccccc2/C1=N\[O-].[Cu+2] | BT-549 breast | false (0)
O=C(Nc1ccncc1)C(=O)c1cn(S(=O)(=O)c2ccc(F)cc2)c2ccccc12 | BT-549 breast | false (0)

Request: Called result for "COc1ccc2[nH]cc(C3(c4c[nH]c5ccc(OC)cc45)C(=O)Nc4ccc(F)cc43)c2c1"
Result: false (0)

Request: Check the results log: what was the call for "CCOC(=O)Nc1ccc(-c2nc(-c3cccc(OCCN4CCOCC4)c3)c(-c3ccnc(Br)c3)[nH]2)cc1" ?
Result: false (0)

Request: Hello, I am checking results. What call was entered for "C[C@@H]1CC[C@@H]2[C@@H]1[C@H](OC(=O)/C=C/c1ccccc1)[C@]1(C3CCCCC3)C[C@@H](OC(=O)CO)[C@@]2(C)O1" ?
Result: true (1)

Request: Could you kindly confirm the outcome this assay logged for "Nc1c(C(=O)Nc2ccncc2)sc2nc3c(cc12)CCCCCCCC3" ?
Result: false (0)

Request: Which outcome was assigned to CCSc1ncnc2c1ncn2C1OC(CO)C(O)C1O (centres undefined) in this test?
Result: false (0)

Request: Give the logged outcome of this assay for the following molecule: "C=CCCCCOc1ccccc1-c1cnc(OCCCCC=C)n1C"
Result: false (0)

Request: What outcome does the record of this test show for "COc1ccc(Nc2nnc(-c3cc(O)ccc3O)s2)cc1" ?
Result: false (0)

* * *

- Tested on: EKVX NSCLC
- ASSAY_REMARKS: NCI tumour cell line growth inhibition, 48 h
Where a SMILES comes first, the peptide text is derived from it. The star is where a group is joined. Cbz = O=C(OCc1ccccc1)*
For each of the compounds below, state its TGI.

# annotated cases, reported TGI shown
COMPOUND | RESULT
CCOC(=O)C12OC(CCC1=O)C(C(=O)OC)=C2C(=O)OC (stereo not given) | > 10 µM
Cc1cc(S(=O)(=O)Nc2n[nH]c(N)n2)c(SCC(=O)O)cc1Cl | > 10 µM
CC1CCC(=O)C(C(=O)CC2CC(=O)N(C)C(=O)C2)C1 (stereo not given) | > 100 µM
O=C(Cn1c[n+](CC(=O)c2ccc(-c3ccccc3)cc2)c2ccccc21)Nc1cccc2cccnc12 | 4.13 µM
COc1ccc(NC(=O)/C(Cc2cc(=O)oc3cc(O)ccc23)=N\NC(C)(C)C)c(OC)c1 | > 100 µM
Oc1cccnc1[Se] | 80.2 µM

# batch: return TGI for each of the 2 compounds below
1. CCOC(=O)CN1C(=O)c2ccc(NC(=O)C(=O)O)cc2S1(=O)=O
2. COC(CNC(=O)C(C)NC(=O)/C=C/c1ccccc1)OC (stereo not given)

Result:
["> 100 µM", "> 100 µM"]

Please state TGI for every compound in the list that follows.
1. [N-]=[N+]=N[C@H]1C[C@@H](CO)O[C@H]1n1cnc2c(N)ncnc21
2. O=C(O)CCC(NC(=O)OCc1ccccc1)C(=O)NC(Cc1cnc[nH]1)C(=O)O (stereo not drawn) (Cbz-Glu-His-OH; configuration not given here)
3. O=[N+]([O-])c1ccc2c(c1)C1=C(CO2)Cc2ccccc2O1

Result:
1: > 100 µM; 2: > 100 µM; 3: > 100 µM

Give one value of TGI per listed compound.
1. CCOc1ccccc1NC(=O)C(=O)CC(=O)c1sc(Nc2nnc(-c3ccc(Cl)c(Cl)c3)o2)nc1C
2. C=CCCCCOc1ccccc1-c1cnc(OCCCCC=C)n1C

Result:
> 100 µM
44.1 µM

For each of the compounds below, note its TGI.
1. O=c1ccn([C@H]2CSC[C@@H](CO)C2)c(=O)[nH]1
2. COc1cc(-n2cc(-c3ccc(F)cc3)[nH]c2=O)cc(OC)c1OC
3. NCc1ccccc1-c1c2nc(c(-c3ccccc3CN)c3ccc([nH]3)c(-c3ccccc3CN)c3nc(c(-c4ccccc4CN)c4ccc1[nH]4)C=C3)C=C2

Result:
["> 100 µM", "> 100 µM", "48.7 µM"]
